These entries and their values trace back to ChEMBL document CHEMBL4251615.

Reported growth at 10 µM values for the following molecules.
# Test system: NCI-H23
# assay.overview: Growth inhibition of human NCI-H23 cells assessed as cell growth at 10 uM incubated for 48 hrs by sulforhodamine B assay relative to control
# Format: functional
# test.context: NCI-H23, 48 h, read-out: Activity

[
  {
    "smiles.str": "CCOC(=O)c1c(C)oc2ncnc(Nc3ccc(OCc4cccc(C)c4)cc3)c12",
    "experimental.target": "NCI-H23",
    "growth at 10 µM, %": 94.9
  },
  {
    "smiles.str": "CCOC(=O)c1c(C)oc2ncnc(Nc3ccc(OCc4ccc(Cl)cc4)cc3)c12",
    "experimental.target": "NCI-H23",
    "growth at 10 µM, %": 95.4
  },
  {
    "smiles.str": "CCOC(=O)c1c(C)oc2ncnc(Nc3ccc(OCc4cccc(F)c4)cc3)c12",
    "experimental.target": "NCI-H23",
    "growth at 10 µM, %": 91.8
  },
  {
    "smiles.str": "Cc1oc2ncnc(Nc3cccc(F)c3)c2c1C(=O)NCCO",
    "experimental.target": "NCI-H23",
    "growth at 10 µM, %": 99.6
  },
  {
    "smiles.str": "CCOC(=O)c1c(C)oc2ncnc(Nc3ccc(OCc4ccc(Cl)c(Cl)c4)cc3)c12",
    "experimental.target": "NCI-H23",
    "growth at 10 µM, %": 95.8
  },
  {
    "smiles.str": "Cc1oc2ncnc(Nc3ccccc3)c2c1C(=O)NCCO",
    "experimental.target": "NCI-H23",
    "growth at 10 µM, %": 92
  },
  {
    "smiles.str": "Cc1cccc(Nc2ncnc3oc(C)c(C(=O)NCCO)c23)c1",
    "experimental.target": "NCI-H23",
    "growth at 10 µM, %": 92.8
  },
  {
    "smiles.str": "CCOC(=O)c1c(C)oc2ncnc(Nc3ccc(F)c(Cl)c3)c12",
    "experimental.target": "NCI-H23",
    "growth at 10 µM, %": 88
  },
  {
    "smiles.str": "CCOC(=O)c1c(C)oc2ncnc(Nc3ccc(F)cc3)c12",
    "experimental.target": "NCI-H23",
    "growth at 10 µM, %": 91.9
  },
  {
    "smiles.str": "Cc1cccc(Nc2ncnc3oc(C)c(C(=O)NCCN4CCOCC4)c23)c1",
    "experimental.target": "NCI-H23",
    "growth at 10 µM, %": 92.5
  },
  {
    "smiles.str": "Cc1oc2ncnc(Nc3ccc(OCc4cccc(F)c4)c(Cl)c3)c2c1C(=O)NCCO",
    "experimental.target": "NCI-H23",
    "growth at 10 µM, %": 58.6
  },
  {
    "smiles.str": "CCCNC(=O)c1c(C)oc2ncnc(Nc3cccc(Cl)c3)c12",
    "experimental.target": "NCI-H23",
    "growth at 10 µM, %": 91.5
  },
  {
    "smiles.str": "Cc1oc2ncnc(Nc3cccc(Cl)c3)c2c1CO",
    "experimental.target": "NCI-H23",
    "growth at 10 µM, %": 87.5
  },
  {
    "smiles.str": "CCOC(=O)c1c(C)oc2ncnc(Nc3cccc(F)c3)c12",
    "experimental.target": "NCI-H23",
    "growth at 10 µM, %": 97.8
  },
  {
    "smiles.str": "Cc1oc2ncnc(Nc3cccc(F)c3)c2c1C(=O)O",
    "experimental.target": "NCI-H23",
    "growth at 10 µM, %": 97.6
  }
]
